# System: Cryptococcus neoformans
# assay.summary: Antifungal activity against Cryptococcus neoformans after 72 hrs by microbroth dilution technique
# Type: functional
# cond: Cryptococcus neoformans, 72 h; read-out: MIC
quantity.measured: MIC (µg/mL)
Write it as a number; the unit µg/mL goes unstated.

The reported value for CCCCCCc1cn(CC(O)(Cn2cncn2)c2ccc(F)cc2F)nn1 (racemic) in terms of MIC is 25

The reported value for CCCCCCCCn1cc(CC(O)(Cn2cncn2)c2ccc(F)cc2F)nn1 (racemic) in terms of MIC is 25

The reported value for CCCCCCc1cn(C[C@@](O)(Cn2cncn2)c2ccc(F)cc2F)nn1 in terms of MIC is 50

The reported value for OC(Cn1cncn1)(Cn1cncn1)c1ccc(F)cc1F in terms of MIC is 1

The reported value for CCCCCCc1cnnn1CC(O)(Cn1cncn1)c1ccc(F)cc1F (racemic) in terms of MIC is 50

The reported value for CCCCCCc1cn(C[C@](O)(Cn2cncn2)c2ccc(F)cc2F)nn1 in terms of MIC is 50

The reported value for C[C@@H]1[C@H](O)[C@@H](C)/C=C/C=C/C=C/C=C/C=C/C=C/C=C/[C@H](O[C@@H]2O[C@H](C)[C@@H](O)[C@H](N)[C@@H]2O)C[C@@H]2O[C@](O)(C[C@@H](O)C[C@@H](O)[C@H](O)CC[C@@H](O)C[C@@H](O)CC(=O)O[C@H]1C)C[C@H](O)[C@H]2C(=O)O in terms of MIC is 0.06

Turning to the following molecule.
The reported value for CCCCCCCCn1nncc1CC(O)(Cn1cncn1)c1ccc(F)cc1F (racemic) in terms of MIC is 50

* * *

# Test system: Aspergillus fumigatus
# assay.summary: Antifungal activity against Aspergillus fumigatus after 72 hrs by microbroth dilution technique
# Type: functional
# cond: Aspergillus fumigatus, 72 h; read-out: MIC
Consider the following compounds and their measured MIC readings.
Write it as a number; the unit µg/mL goes unstated.

Recorded results for 4 compounds are shown here.
The reported value for OC(Cn1cncn1)(Cn1cncn1)c1ccc(F)cc1F in terms of MIC is 2

The reported value for CCCCCCc1cn(C[C@@](O)(Cn2cncn2)c2ccc(F)cc2F)nn1 in terms of MIC is 50

The reported value for CCCCCCc1cnnn1CC(O)(Cn1cncn1)c1ccc(F)cc1F (racemic) in terms of MIC is 25

The reported value for CCCCCCc1cn(CC(O)(Cn2cncn2)c2ccc(F)cc2F)nn1 (racemic) in terms of MIC is 25

New cases:
The reported value for C[C@@H]1[C@H](O)[C@@H](C)/C=C/C=C/C=C/C=C/C=C/C=C/C=C/[C@H](O[C@@H]2O[C@H](C)[C@@H](O)[C@H](N)[C@@H]2O)C[C@@H]2O[C@](O)(C[C@@H](O)C[C@@H](O)[C@H](O)CC[C@@H](O)C[C@@H](O)CC(=O)O[C@H]1C)C[C@H](O)[C@H]2C(=O)O in terms of MIC is 0.5
